The reported measurements were obtained from PubChem BioAssay AID1845219.

Test system: SYO-1 tumor spheroids, viability % test/control
ASSAY_OVERVIEW: Anticancer human tumor SYO-1 cell line growth inhibition;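 also: spheroids exposed to agents for 7 days before viability read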;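 as to viability, T/C: 100% = DMSO vehicle control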
EXPERIMENTAL_CONDITIONS: second compound 0.03 µM; first compound 0.1 µM; stronger effect = lower value; spheroids with HUVEC and MSC
Protocol: Multicellular complex tumor spheroid response to DNA repair inhibitors in combination with DNA-damaging drugs This study explores the anticancer activities of DNA-damaging drugs and inhibitors of DNA damage repair, both as single agents and in combinations. […] Twenty-six patient-derived or established malignant cell lines were evaluated representing sarcoma, melanoma, small cell lung cancer (SCLC), non-small cell lung cancer (NSCLC), as well as bladder, ovarian and pancreatic cancers. […]
Checkbox rule: viability, T/C lower than 2% = criterion met; viability, T/C not lower than 2% = criterion not met.

COMPOUND	CATEGORY
Cc1cc(C)c(CNC(=O)c2cc(-c3ccc(CN4CCOCC4)cc3)cc3c2cnn3C2CCCC2)c(=O)[nH]1 + CC[C@@]1(O)C(=O)OCc2c1cc1n(c2=O)Cc2cc3c(CN(C)C)c(O)ccc3nc2-1	criterion met
[2H]c1nc(C)nc([2H])c1-c1cc(NC[C@@H](C)c2cccc3c(C(=O)NC)ccnc23)ncn1 + CC[C@@]1(O)C(=O)OCc2c1cc1n(c2=O)Cc2cc3c(CN(C)C)c(O)ccc3nc2-1	criterion not met
CC1COCCN1c1cc(-c2ccnn2C)c2ccnc(-c3ccn[nH]3)c2n1 (stereo unspecified) + CC[C@@]1(O)C(=O)OCc2c1cc1n(c2=O)Cc2cc3c(CN(C)C)c(O)ccc3nc2-1	criterion met
CC(C)n1c(=O)n(C)c2cnc3cc(F)c(-c4ccc(OCCCN5CCCCC5)nc4)cc3c21 + CC[C@@]1(O)C(=O)OCc2c1cc1n(c2=O)Cc2cc3c(CN(C)C)c(O)ccc3nc2-1	criterion not met
COc1ccc([C@@H](O)c2cc(-c3ncnc4cc(N5CCOCC5)ccc34)c(F)cc2Cl)nn1 + CC[C@@]1(O)C(=O)OCc2c1cc1n(c2=O)Cc2cc3c(CN(C)C)c(O)ccc3nc2-1	criterion met
COc1cc(C)[nH]c(=O)c1CN1CCc2c(Cl)cc(C(OC)C3COC3)c(Cl)c2C1=O (stereo unspecified) + CC[C@@]1(O)C(=O)OCc2c1cc1n(c2=O)Cc2cc3c(CN(C)C)c(O)ccc3nc2-1	criterion not met

----------
Test system: SYO-1 tumor spheroids, viability % test/control
ASSAY_OVERVIEW: Anticancer human tumor SYO-1 cell line growth inhibition;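 also: spheroids exposed to agents for 7 days before viability read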;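 as to viability, T/C: 100% = DMSO vehicle control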
EXPERIMENTAL_CONDITIONS: second compound 3.16 µM; first compound 0.949 µM; stronger effect = lower value; spheroids with HUVEC and MSC
TEST_READOUT: viability, T/C (%)

                                   compound  unit_string  endpoint_value
0  Cn1ncnc1[C@H]1c2n[nH]c(=O)c3cc(F)cc(c23)N[C@@H]1c1ccc(F)cc1 + Cn1nnc2c(C(N)=O)ncn2c1=O            %            2.09
1  Cc1sc2c(c1C)C(c1ccc(Cl)cc1)=NC(CC(=O)Nc1ccc(O)cc1)c1nnc(C)n1-2 (centres undefined) + Cn1nnc2c(C(N)=O)ncn2c1=O            %            0.71
2  CNCc1ccc(-c2cc(-c3nc(-c4ccc(S(=O)(=O)C(C)C)cc4)cnc3N)on2)cc1 + Cn1nnc2c(C(N)=O)ncn2c1=O            %            0.12
3  O=C(c1cc(Cc2n[nH]c(=O)c3ccccc23)ccc1F)N1CCN(C(=O)C2CC2)CC1 + Cn1nnc2c(C(N)=O)ncn2c1=O            %            88.4

----------
Measured IC50 accompanies every entry in the list below.
System: SYO-1 tumor spheroids, viability % test/control
ASSAY_OVERVIEW: Anticancer human tumor SYO-1 cell line growth inhibition;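 also: spheroids exposed to agents for 7 days before viability read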
EXPERIMENTAL_CONDITIONS: curve of first compound; second compound 0.000949 µM; spheroids with HUVEC and MSC
TEST_READOUT: IC50

MOLECULE	ENDPOINT_VALUE
Cc1cc(C)c(CNC(=O)c2cc(-c3ccc(CN4CCOCC4)cc3)cc3c2cnn3C2CCCC2)c(=O)[nH]1 + COc1cc2c(cc1O)CCNC21CSC2c3c(OC(C)=O)c(C)c4c(c3C(COC1=O)N1C(O)C3Cc5cc(C)c(OC)c(O)c5C(C21)N3C)OCO4	< 31.6 nM
[2H]c1nc(C)nc([2H])c1-c1cc(NC[C@@H](C)c2cccc3c(C(=O)NC)ccnc23)ncn1 + COc1cc2c(cc1O)CCNC21CSC2c3c(OC(C)=O)c(C)c4c(c3C(COC1=O)N1C(O)C3Cc5cc(C)c(OC)c(O)c5C(C21)N3C)OCO4	< 31.6 nM

----------
System: SYO-1 tumor spheroids, viability % test/control
ASSAY_OVERVIEW: Anticancer human tumor SYO-1 cell line growth inhibition;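 also: spheroids exposed to agents for 7 days before viability read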
EXPERIMENTAL_CONDITIONS: curve of first compound; second compound 0.000949 µM; spheroids with HUVEC and MSC
TEST_READOUT: IC50

COMPOUND	ENDPOINT_VALUE
Cc1sc2c(c1C)C(c1ccc(Cl)cc1)=NC(CC(=O)Nc1ccc(O)cc1)c1nnc(C)n1-2 (centres undefined) + COc1cc2c(cc1O)CCNC21CSC2c3c(OC(C)=O)c(C)c4c(c3C(COC1=O)N1C(O)C3Cc5cc(C)c(OC)c(O)c5C(C21)N3C)OCO4	< 9.49 nM
CNCc1ccc(-c2cc(-c3nc(-c4ccc(S(=O)(=O)C(C)C)cc4)cnc3N)on2)cc1 + COc1cc2c(cc1O)CCNC21CSC2c3c(OC(C)=O)c(C)c4c(c3C(COC1=O)N1C(O)C3Cc5cc(C)c(OC)c(O)c5C(C21)N3C)OCO4	< 9.49 nM
Cn1ncnc1[C@H]1c2n[nH]c(=O)c3cc(F)cc(c23)N[C@@H]1c1ccc(F)cc1 + COc1cc2c(cc1O)CCNC21CSC2c3c(OC(C)=O)c(C)c4c(c3C(COC1=O)N1C(O)C3Cc5cc(C)c(OC)c(O)c5C(C21)N3C)OCO4	< 9.49 nM
O=C(c1cc(Cc2n[nH]c(=O)c3ccccc23)ccc1F)N1CCN(C(=O)C2CC2)CC1 + COc1cc2c(cc1O)CCNC21CSC2c3c(OC(C)=O)c(C)c4c(c3C(COC1=O)N1C(O)C3Cc5cc(C)c(OC)c(O)c5C(C21)N3C)OCO4	< 94.9 nM

----------
Below, each of the compounds is paired with its reported viability, T/C value.
System: SYO-1 tumor spheroids, viability % test/control
ASSAY_OVERVIEW: Anticancer human tumor SYO-1 cell line growth inhibition;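 also: spheroids exposed to agents for 7 days before viability read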;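 as to viability, T/C: 100% = DMSO vehicle control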
EXPERIMENTAL_CONDITIONS: second compound 31.6 µM; first compound 0.3 µM; stronger effect = lower value; spheroids with HUVEC and MSC
TEST_READOUT: viability, T/C

                                   compound  endpoint_value
0  CNCc1ccc(-c2cc(-c3nc(-c4ccc(S(=O)(=O)C(C)C)cc4)cnc3N)on2)cc1 + Cn1nnc2c(C(N)=O)ncn2c1=O           1.76%
1  Cc1sc2c(c1C)C(c1ccc(Cl)cc1)=NC(CC(=O)Nc1ccc(O)cc1)c1nnc(C)n1-2 (centres undefined) + Cn1nnc2c(C(N)=O)ncn2c1=O           1.03%
2  O=C(c1cc(Cc2n[nH]c(=O)c3ccccc23)ccc1F)N1CCN(C(=O)C2CC2)CC1 + Cn1nnc2c(C(N)=O)ncn2c1=O           13.5%
3  Cn1ncnc1[C@H]1c2n[nH]c(=O)c3cc(F)cc(c23)N[C@@H]1c1ccc(F)cc1 + Cn1nnc2c(C(N)=O)ncn2c1=O           1.86%

----------
Test system: SYO-1 tumor spheroids, viability % test/control
ASSAY_OVERVIEW: Anticancer human tumor SYO-1 cell line growth inhibition;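 also: spheroids exposed to agents for 7 days before viability read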;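 as to viability, T/C: 100% = DMSO vehicle control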
EXPERIMENTAL_CONDITIONS: second compound 0.03 µM; first compound 0.316 µM; stronger effect = lower value; spheroids with HUVEC and MSC
Please assign NOT MET whenever viability, T/C is at or above 2%, and MET whenever it is below.

MOLECULE	CATEGORY
Cc1cc(C)c(CNC(=O)c2cc(-c3ccc(CN4CCOCC4)cc3)cc3c2cnn3C2CCCC2)c(=O)[nH]1 + CC[C@@]1(O)C(=O)OCc2c1cc1n(c2=O)Cc2cc3c(CN(C)C)c(O)ccc3nc2-1	MET
[2H]c1nc(C)nc([2H])c1-c1cc(NC[C@@H](C)c2cccc3c(C(=O)NC)ccnc23)ncn1 + CC[C@@]1(O)C(=O)OCc2c1cc1n(c2=O)Cc2cc3c(CN(C)C)c(O)ccc3nc2-1	MET
COc1ccc([C@@H](O)c2cc(-c3ncnc4cc(N5CCOCC5)ccc34)c(F)cc2Cl)nn1 + CC[C@@]1(O)C(=O)OCc2c1cc1n(c2=O)Cc2cc3c(CN(C)C)c(O)ccc3nc2-1	MET
CC1COCCN1c1cc(-c2ccnn2C)c2ccnc(-c3ccn[nH]3)c2n1 (stereo unspecified) + CC[C@@]1(O)C(=O)OCc2c1cc1n(c2=O)Cc2cc3c(CN(C)C)c(O)ccc3nc2-1	MET
CC(C)n1c(=O)n(C)c2cnc3cc(F)c(-c4ccc(OCCCN5CCCCC5)nc4)cc3c21 + CC[C@@]1(O)C(=O)OCc2c1cc1n(c2=O)Cc2cc3c(CN(C)C)c(O)ccc3nc2-1	NOT MET
COc1cc(C)[nH]c(=O)c1CN1CCc2c(Cl)cc(C(OC)C3COC3)c(Cl)c2C1=O (stereo unspecified) + CC[C@@]1(O)C(=O)OCc2c1cc1n(c2=O)Cc2cc3c(CN(C)C)c(O)ccc3nc2-1	NOT MET
